Test system: HL-60(TB) leukemia
assayText: NCI-60 one-dose screen, 48 h (100 = growth as untreated, 0 = no growth, -100 = all killed)
appliedConditions: 10 µM unless noted
The panel holds about 83,000 compounds, 20% with a hit somewhere; the sample as a whole holds those more often.
quantityKind: growth (%)

compound=COC(=O)c1cnc2c(c1)Oc1ccc(Cl)cc1-c1cc(C)nn1-2 unittext=% resultnumber=95.9
compound=O=C/C=C/c1ccc([N+](=O)[O-])cc1Cl unittext=% resultnumber=82.6
compound="COc1cccc(NC(=O)c2cccc(C3CCc4c(cc(OC)c(OC)c4OC)O3)c2)c1 (stereo unspecified)" unittext=% resultnumber=44.2
compound=CC(=O)Nc1nc(C)c(C(=O)N/N=C/c2cccn2C)s1 unittext=% resultnumber=112
compound=Cc1ccccc1-c1cc(-c2ccc(Br)s2)[nH]c(=O)c1C#N unittext=% resultnumber=82
compound="CC1(c2ccccc2)CO1 (stereo unspecified)" unittext=% resultnumber=105

====

Test system: MCF7 breast
assayText: NCI-60 one-dose screen, 48 h
appliedConditions: 10 µM unless noted
About 83,000 compounds went through this panel and 20% of them were active in at least one assay; those are over-represented in the sample as a whole. Activity calls are given as the source filed them. How the source made its calls: active means growth percent below 10; inactive means the rest.
Possible outcomes: Yes for active, No for inactive

compound=CC(=O)N(C)C1=Nc2ccc(Cl)cc2C(c2ccccc2)=[N+]([O-])C1 group=No
compound="Cc1ccc(N)cc1[As]=[As]c1cc(N)ccc1C (stereo not drawn)" group=Yes
compound="Fc1ccc(C2=NN(c3ccccc3)C(c3sc(N(CCCl)CCCl)nc3Cl)C2)cc1 (stereo not drawn)" group=No
compound="O=C(O)CC(Br)C(=O)CBr (stereo not drawn)" group=No
compound=CC(C)[C@]12O[C@H]1[C@@H]1O[C@]13[C@]1(O[C@H]1C[C@H]1C4=C(CC[C@@]13C)C(=O)OC4)[C@@H]2OC(=O)OC(C)(C)C group=No
compound="CC(=O)O[C@H]1C[C@H](O[C@H]2[C@@H](O)C[C@H](O[C@H]3[C@@H](O)C[C@H](O[C@H]4CC[C@@]5(C)C(CCC6C5C[C@@H](O)[C@]5(C)[C@@H](C7=CC(=O)OC7)CC[C@]65O)C4)O[C@@H]3C)O[C@@H]2C)O[C@H](C)[C@H]1O[C@@H]1O[C@H](CO)[C@@H](O)[C@H](O)[C@H]1O (stereo partly drawn)" group=Yes
compound=CCN1CC2(CN(CC)C1=S)C(=O)NC(=O)NC2=O group=No
compound="CCOc1ccc(C(O)CN(C)Cc2ccccc2)cc1Cl (stereo not drawn)" group=No
compound=C[CH2][Pb]([CH2]C)([CH2]C)[O]C(=O)c1ccc(N)cc1 group=No
compound="CCCCCN1C(=O)C(CO)N=C(c2cccc(O)c2)c2ccccc21 (stereo not drawn)" group=No
compound=S=P(NC1CCCCC1)(N1CC1)N1CC1 group=No
compound=CCOCC1(CCc2ccccc2)C(=O)NC(=S)NC1=O group=No
compound="CC(=O)N1N=C(c2ccccc2)CC1c1sc(N(CCCl)CCCl)nc1Cl (stereo not drawn)" group=No
compound=C[CH2][Sn]([CH2]C)([CH2]C)[NH]S(=O)(=O)c1ccc(C)cc1 group=No
compound=COc1ccc(C(c2ccc(OC)cc2)C(Cl)(Cl)Cl)cc1 group=No
compound="COc1c(O)c2c3c(c1OC)-c1ccccc1CC3N(C)CC2 (stereo not drawn)" group=No
compound=CC(=O)Nc1ccc(Cc2ccc(NC(C)=O)cc2)cc1 group=No
compound=Cn1cnnc1[S-].[Au+].c1ccc([PH+](c2ccccc2)c2ccccc2)cc1 group=Yes
compound=O=C(O)c1nn(Cc2ccc(Cl)cc2)c2ccccc12 group=No
compound=CN(Cc1cccnc1)N=O group=No
compound="CC(N)Cc1ccc(O)cc1 (stereo not drawn)" group=No
compound=CC1(C)N=C(N)N=C(N)N1c1ccc(CCCCc2ccc(Cl)cc2S(=O)(=O)F)c(Cl)c1 group=No
compound="CC(=O)OC1CCC2(C)C(=CCC3C4CC(CN5CC5)C(=O)C4(C)CCC32)C1 (stereo not drawn)" group=No
compound=c1cnc2c(c1)ccc1ncccc12 group=No
compound=O=C(CCl)NCNC(=O)CCl group=No
compound=NC(=O)NC(=O)CI group=No
compound=COc1cc(CNCCc2ccc(Cl)cc2)cc(OC)c1O group=No
compound=CNC(=O)Oc1cccc(N(C)C)c1 group=No
compound=N#[N+]c1nc2nc(N)[nH]c(=O)c2[nH]1 group=No
compound=Cc1ccc(C[As+](c2ccccc2)(c2ccccc2)c2ccccc2)cc1 group=Yes
compound=CC(=O)O[C@@H]1C2=C(C)C3(CC3)[C@@](C)(O)C(=O)C2=C[C@@]1(C)CO group=Yes
compound="O=[N+]([O-])c1cccc([As]=[As]c2cccc([N+](=O)[O-])c2)c1 (stereo not drawn)" group=Yes
compound=C[C@]12C[C@H](O)[C@H]3[C@@H](CCC4=CC(=O)CC[C@@]43C)[C@@H]1CC[C@@H]2O group=No
compound=COc1ccc(-c2ccc(OC)c(OC)c2OC)cc1 group=No
compound="CC12CC[C@H](O)C=C1/C(=N/O)CC1C2CCC2(C)C1CC[C@@H]2O (stereo partly drawn)" group=No
compound="C#CC1(O)CCC2(C)C(CCC3C4CCC(=O)C4(C)CCC32)C1 (stereo not drawn)" group=No
compound="COC(=O)C1CC2c3ccccc3C1c1ccccc12 (stereo not drawn)" group=No
compound=CC(C)(O)/C=C/C(=O)[C@](C)(O)[C@H]1[C@H](O)C[C@@]2(C)[C@@H]3CC=C4[C@@H](C=C(O)C(=O)C4(C)C)[C@]3(C)C(=O)C[C@]12C group=Yes
compound="O=C(O)C1(Br)CC12c1ccccc1-c1ccccc12 (stereo not drawn)" group=No
compound=C=CCC1(CC)C(=O)NC(=S)NC1=O group=No
compound=O=[N+]([O-])c1ccc(F)c([N+](=O)[O-])c1F group=No
compound=ClCCN(CCCl)c1ccc(/C=C\c2ccnc3ccccc23)cc1 group=No
compound=Cc1cc(C)nc(C)c1.[Cl][Hg][Cl] group=No

====

Test system: HL-60(TB) leukemia
assayText: NCI-60 one-dose screen, 48 h (100 = growth as untreated, 0 = no growth, -100 = all killed)
appliedConditions: 10 µM unless noted
The panel holds about 83,000 compounds, 20% with a hit somewhere; the sample as a whole holds those more often.
// assign condition met if growth falls strictly below 10%, else condition not met (ties count as condition not met)

compound=Clc1ccc2c(NCCCNc3nc(-n4ccnc4)nc4ccccc34)ccnc2c1 assaysystem="HL-60(TB) leukemia" group="condition not met"
compound=CN(C)/C(N)=N/N=C(\c1ccccc1)c1ccccn1 assaysystem="HL-60(TB) leukemia" group="condition not met"
compound=NC(N)=Nc1cc2ccccc2c2ccccc12 assaysystem="HL-60(TB) leukemia" group="condition not met"
compound=Cc1ncc(-c2ccnc(Nc3ccc(S(C)(=O)=O)cc3)n2)n1C(C)C assaysystem="HL-60(TB) leukemia" group="condition met"
compound=CCCCCCCCCCCCCCCCCC1=NC(C)(C)CN1CCO assaysystem="HL-60(TB) leukemia" group="condition met"
compound=Cc1cc2c(cc1C)N(C(=O)CCl)CC(=O)N2 assaysystem="HL-60(TB) leukemia" group="condition met"
compound=O=C1/C(=C/c2cccc(Br)c2)COc2ccc(O)cc21 assaysystem="HL-60(TB) leukemia" group="condition met"
compound=Nc1ccc(-c2ccc(-c3ccccc3N)c3[nH]c4ccccc4c23)cc1 assaysystem="HL-60(TB) leukemia" group="condition met"
compound=O=C(Nc1ccncc1)C(=O)c1cn(S(=O)(=O)c2ccccc2F)c2ccccc12 assaysystem="HL-60(TB) leukemia" group="condition not met"
compound=CCCCC(=O)Nc1nc2ccc(SCCC)cc2s1 assaysystem="HL-60(TB) leukemia" group="condition not met"
compound=CCc1n(Cc2ccc3ccccc3c2)c2ccccc2[n+]1Cc1ccc2ccccc2c1 assaysystem="HL-60(TB) leukemia" group="condition not met"
compound="c1ccc(CC(NCCNC(Cc2ccccc2)c2ccccc2)c2ccccc2)cc1 (stereo not drawn)" assaysystem="HL-60(TB) leukemia" group="condition met"
compound=Brc1ccc(Nc2csc(-c3ccccn3)n2)cc1 assaysystem="HL-60(TB) leukemia" group="condition not met"
compound=COc1ccc(Br)cc1NC(=O)Nc1cccc2c1ccn2Cc1ccnc(N)c1 assaysystem="HL-60(TB) leukemia" group="condition not met"
compound="NC1=C(/C(N)=N/O)C(c2ccccc2)c2ccc3ccccc3c2O1 (stereo not drawn)" assaysystem="HL-60(TB) leukemia" group="condition met"
compound="CN1CCC(=C(c2ccccc2)c2ccccc2)C(c2ccccc2)C1 (stereo not drawn)" assaysystem="HL-60(TB) leukemia" group="condition not met"
compound=O=c1cc(SCc2ccccc2)nc[nH]1 assaysystem="HL-60(TB) leukemia" group="condition not met"
compound=CC/C=C\CCC/C=C1/C(=O)C=C[C@@H]1C/C=C\CCCC(=O)O assaysystem="HL-60(TB) leukemia" group="condition not met"
compound=O=C(CN1CCN(c2cc3c(cc2F)c(=O)c(C(=O)O)cn3C2CC2)CC1)N/N=C/c1ccco1 assaysystem="HL-60(TB) leukemia" group="condition not met"
compound="COc1ccc(-c2nc(C#N)c(NCC(c3ccco3)N3CCCC3)o2)cc1 (stereo not drawn)" assaysystem="HL-60(TB) leukemia" group="condition met"
compound="CCCCC(=O)Nc1c(C(=O)Nc2ccccc2)sc2nc3c(cc12)C(OC(=O)CCCC)CCC3 (stereo not drawn)" assaysystem="HL-60(TB) leukemia" group="condition not met"
compound="C/C(=N\\NC(=O)C(C)SC(C)C(=O)N/N=C(\\C)c1cccnc1)c1cccnc1 (stereo not drawn)" assaysystem="HL-60(TB) leukemia" group="condition not met"
compound=CN1CCC(=C2c3ccccc3C=Cc3ccccc32)CC1 assaysystem="HL-60(TB) leukemia" group="condition not met"
